Origin of the recorded values: patent US20170240628A1

study system: T1, recombinant human midkine (huMK) (human, UniProt P21741 21-143)
T1 sequence (looked up): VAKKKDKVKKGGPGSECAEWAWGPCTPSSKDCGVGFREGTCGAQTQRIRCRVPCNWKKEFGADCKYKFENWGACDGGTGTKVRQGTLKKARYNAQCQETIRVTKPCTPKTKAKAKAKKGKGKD
protocol description: cell-based or functional assay
For each entry below, report its Mean Cells/Field, Assay 5 (UMR106 migration, antibody 100 ug/mL, MK-17 20 µg/mL) value.

Look up Mean Cells/Field, Assay 5 (UMR106 migration, antibody 100 ug/mL, MK-17 20 µg/mL) for the entries below, preserving their order.
1. IP14-H5L8 (antibody, V domains shown, also called hIP14-H5L8; Hv5 Lv8) VH: QVQLVQSGGGLVQPGGSLRLSCAASGQSFSSYWMNWVRQAPGQGLEWIGMIHPSDSETILNQKFKDKATLTVDISKNTAYLQMNSLRAEDTAVYYCSSWSAKRGDFWGQGTLVTVSS VL: DIVLTQSPATLSLSPGERATLSCRASESISNNLHWYQQKPHQAPRLLIYYASQSISGVPARFSGSGSGTDFTLTISSVEPEDFAVYYCQQSNSWPLTFGQGTKVEIKR
2. murine IP14 precursor antibody (antibody, V domains shown, Murine monoclonal antibody; also called mIP14; mAb IP14) VH: QVQLQQPGAELVRPGHSVKLSCKASGQSFSSYWMNWVRQRPGQGLEWIGMIHPSDSETILNQKFKDKATLTVDISSNTAYMQLSSPTSEDSAVYFCSSWSAKRGDFWGQGTTLTVSS VL: DIVLTQSPATLSVTPGDSVNLSCRASESISNNLHWYQQKSHESPRLLIKYASQSISGIPSRFSGSGSGTDFNLSVNSVETEDFGMYFCQQSNSWPLTFGAGTKLELKR
3. IP14-H6L8 (antibody, V domains shown, also called hIP14-H6L8; Hv6 Lv8) VH: QVQLVQSGGGLVKPGHSLRLSCAASGQSFSSYWMNWVRQAPGKGLEWIGMIHPSDSETILNQKFKDKATLSVDIAKNSAYLQMNSLRAEDTAVYYCSSWSAKRGDFWGQGTLVTVSS VL: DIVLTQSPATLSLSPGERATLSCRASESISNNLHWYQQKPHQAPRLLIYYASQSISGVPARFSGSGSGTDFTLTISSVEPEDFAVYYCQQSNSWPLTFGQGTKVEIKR

["29 cells/field", "38 cells/field", "32 cells/field"]

Find the recorded Mean Cells/Field, Assay 5 (UMR106 migration, antibody 100 ug/mL, MK-17 20 µg/mL) belonging to IP14-H6L3 (antibody, V domains shown, also called hIP14-H6L3; Hv6 Lv3) VH: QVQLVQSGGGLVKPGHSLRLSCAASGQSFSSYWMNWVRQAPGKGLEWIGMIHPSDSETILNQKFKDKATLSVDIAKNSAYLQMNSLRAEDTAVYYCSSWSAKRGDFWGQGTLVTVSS VL: DIVLTQSPATLSLSPGERATLSCRASESISNNLHWYQQKPGQAPRLLIYYASQSISGIPARFSGSGPGTDFTLTISSLEPEDFAVYYCQQSNSWPLTFGGGTKLEIKR and report it. 25 cells/field
